Assay: Plasma concentration in Sprague-Dawley rat at 10 mg/kg, po administered in 10% solutol in D5W after 2 hrs
Assay type: ADME, organism-based
Design: dose 10 mg/kg, route oral

structure	concentration at 2 h [ng/mL]
CN(C)/N=C/c1c(N)ncnc1Nc1ccc2c(cnn2Cc2cccc(F)c2)c1	13.2

###

Consider the following compounds and their measured pIC50 readings.
System: NCI-N87
Assay: Antiproliferative activity against human N87 cells overexpressing ErB2
Format: functional, cell-based
pIC50: −log10 of the molar value.

structure	pIC50
Nc1ncnc(Nc2ccc3c(cnn3Cc3cccc(F)c3)c2)c1/C=N/N1CCOCC1	7.04
Nc1ncnc(Nc2ccc3c(cnn3Cc3cccc(F)c3)c2)c1/C=N/N1CCN(CCO)CC1	7.24
Nc1ncnc(Nc2ccc3c(cnn3Cc3cccc(F)c3)c2)c1/C=N/N1CCCCC1	6.44
CN(C)/N=C/c1c(N)ncnc1Nc1ccc2c(cnn2Cc2cccc(F)c2)c1	6.88

Origin of the recorded values: ChEMBL document CHEMBL1155952
